Ref: PubChem BioAssay (NCI)

Listed here: items and their measured TGI.
# Test system: MDA-MB-231 breast
# testSummary: NCI tumour cell line growth inhibition, 48 h
endpoint: TGI

compound: O=C1C2CCCCC2C(=O)N1n1c(Cc2ccc(Cl)cc2)n[nH]c1=O (stereo not drawn)
endpoint: TGI
valueReported: > 100 µM

compound: CC(C)=CCN=C(N)N
endpoint: TGI
valueReported: > 100 µM

compound: O=C(Cn1c(=O)oc2ccc(C(=O)c3ccc(F)cc3)cc21)c1ccc([N+](=O)[O-])cc1
endpoint: TGI
valueReported: > 100 µM

----------
# Tested on: SNB-19 CNS
# testSummary: NCI tumour cell line growth inhibition, 48 h
endpoint: TGI

compound: O=C(O)c1ccccc1.[Ag]
endpoint: TGI
valueReported: > 100 µM

compound: O=C1C2CCCCC2C(=O)N1n1c(Cc2ccc(Cl)cc2)n[nH]c1=O (configuration not stated)
endpoint: TGI
valueReported: > 100 µM

compound: COc1cc2c(cc1O)C=NCC2
endpoint: TGI
valueReported: > 100 µM

compound: O=P([O-])(O)OP(=O)([O-])O.[NH-][C@H]1CCCC[C@@H]1[NH-].[OH-].[OH-].[Pt+4]
endpoint: TGI
valueReported: 49.7 µM

compound: NS(=O)(=O)c1ccc(NC(=O)c2ccc(NC3=C(Cl)C(=O)N(Cc4ccccc4)C3=O)cc2)cc1
endpoint: TGI
valueReported: > 100 µM

compound: CCOC(=O)c1cnc(-n2[nH]c(C)c(CCO)c2=O)[nH]c1=O
endpoint: TGI
valueReported: > 100 µM

compound: CN(C)CC(/C(Cc1ccccc1)=N\NC(=O)C[n+]1ccccc1)c1ccccc1 (configuration not stated)
endpoint: TGI
valueReported: > 100 µM

compound: O=S(=O)(Oc1ccc2oc3ccccc3c2c1-c1c(OS(=O)(=O)C(F)(F)F)ccc2oc3ccccc3c12)C(F)(F)F
endpoint: TGI
valueReported: > 100 µM

compound: COC1=CC(c2ccc[nH]2)=N/C1=C\c1[nH]c(C)c(C(=O)OCc2ccccc2)c1C
endpoint: TGI
valueReported: 29.2 µM

compound: O=C1c2c(F)c(F)c(F)c(F)c2SC2=NCCN12
endpoint: TGI
valueReported: 29 µM

compound: C=CC(=O)Nc1ccc(Nc2nccc(-c3ccc(N4CCCC4)c(C#N)c3)n2)cc1
endpoint: TGI
valueReported: > 25 µM

compound: CC1=NN(C(=O)c2ccccc2O)C(=O)/C1=C/c1ccc([N+](=O)[O-])cc1
endpoint: TGI
valueReported: > 100 µM
